The origin of these recorded values is the supplement of paper PMC7877785.

Method description: self-splicing fitness, log relative to wild type (ln ratio); higher = more splicing; Tetrahymena group I intron in knt gene, E. coli kanamycin selection, DiMSum; sequences stand for … in CUCUCU…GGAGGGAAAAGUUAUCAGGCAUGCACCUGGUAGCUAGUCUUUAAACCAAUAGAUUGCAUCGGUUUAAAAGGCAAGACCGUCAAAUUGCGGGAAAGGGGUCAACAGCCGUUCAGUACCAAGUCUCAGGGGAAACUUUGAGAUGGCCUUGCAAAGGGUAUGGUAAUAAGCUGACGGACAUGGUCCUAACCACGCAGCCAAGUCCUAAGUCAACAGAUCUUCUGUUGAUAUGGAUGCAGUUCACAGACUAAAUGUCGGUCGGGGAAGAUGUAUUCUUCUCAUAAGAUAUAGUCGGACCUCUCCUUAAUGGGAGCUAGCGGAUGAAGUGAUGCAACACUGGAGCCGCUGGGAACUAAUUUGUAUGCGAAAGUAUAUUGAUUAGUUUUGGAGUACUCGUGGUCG;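 further: selection with 25 µg/mL kanamycin versus none on LB agar overnight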
Applied conditions: 37 °C
Threshold check on self-splicing fitness (ln): at or above -2 gives true, strictly below gives false.

// below: answered sequences
INSERT INTO results (entry_sequence, category) VALUES
  ('GGCUAGCAAUAUUACGAGUU', 'true'),
  ('CUCCAGCAAUAUUACGUUUA', 'false'),
  ('GCAAAGCAAUAUUACGAGGC', 'false'),
  ('UAGCAGCAAUAUUACGGAUA', 'true'),
  ('AUGAAGCAAUAUUACGUCUC', 'true');

Here is another sequence to look at.
Could you please find out whether AGUUAGCAAUAUUACGUAUC has self-splicing fitness (ln) that meets -2 or exceeds it?
false

----------
Method description: self-splicing fitness, log relative to wild type (ln ratio); higher = more splicing; Tetrahymena group I intron in knt gene, E. coli kanamycin selection, DiMSum; sequences stand for … in CUCUCU…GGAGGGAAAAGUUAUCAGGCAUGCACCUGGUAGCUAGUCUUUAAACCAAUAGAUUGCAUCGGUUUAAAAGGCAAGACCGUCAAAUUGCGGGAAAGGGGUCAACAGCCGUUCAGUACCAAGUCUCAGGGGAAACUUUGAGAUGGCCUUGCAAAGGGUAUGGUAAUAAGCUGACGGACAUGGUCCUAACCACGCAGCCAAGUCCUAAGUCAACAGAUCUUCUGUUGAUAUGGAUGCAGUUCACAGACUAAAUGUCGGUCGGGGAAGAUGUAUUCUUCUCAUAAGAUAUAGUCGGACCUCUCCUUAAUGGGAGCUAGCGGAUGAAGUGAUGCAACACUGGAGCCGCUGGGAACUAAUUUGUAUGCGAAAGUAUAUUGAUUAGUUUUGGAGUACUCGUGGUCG
Applied conditions: 30 °C
Measurement type: self-splicing fitness (ln)
Give bare numbers.

Some sequences with known self-splicing fitness (ln) results, for comparison:
INSERT INTO measurements (entry_sequence, measurement_type, recorded_number) VALUES
  ('UGUUAGCAAUAUUACGACGG', 'self-splicing fitness (ln)', -0.352),
  ('AUGUAGCAAUAUUACGACCU', 'self-splicing fitness (ln)', -0.739),
  ('AACUAGCAAUAUUACGUCCG', 'self-splicing fitness (ln)', -1.74),
  ('GGAAAGCAAUAUUACGUGCU', 'self-splicing fitness (ln)', -1.11),
  ('AUCUAGCAAUAUUACGCUUC', 'self-splicing fitness (ln)', -3.91),
  ('AGAAAGCAAUAUUACGUUAG', 'self-splicing fitness (ln)', -2.91);

Could you tell me self-splicing fitness (ln) for each of these sequences? They are listed below.
1. AGUCAGCAAUAUUACGUAUA
2. GACUAGCAAUAUUACGUAUC
3. CUGGAGCAAUAUUACGAGGA
4. CGAUAGCAAUAUUACGAGCU
5. UCGUAGCAAUAUUACGCGGA

1. -2.69
2. -2.74
3. -3.18
4. -3.42
5. -2.54
